target: α6β3γ2 benzodiazepine receptor GABA(A) isoform (UniProt P18507+Q16445); assay: Radioligand competition binding, α6β3γ2 BzR/GABA(A) isoform; parameters: species or system human and rat; conditions: Table I; means of two determinations; read-out: Ki α6
pKi: −log10 of the molar value.
Provide the recorded pKi for the entries that follow.

Here's what some known entries look like.
INPUT: Answer with reported pKi of C#Cc1ccc2c(c1)C(=O)N1CC[C@@H]1c1c(-c3nc(C)no3)ncn1-2
OUTPUT: < 6.00

INPUT: Give reported pKi value for CCOCc1ncn2c1CN(C)C(=O)c1cc(Cl)ccc1-2 [Ligand 12c]
OUTPUT: < 6.52

Others:
INPUT: Check the records and state pKi for CN1Cc2c(CCl)ncn2-c2ccc(Cl)cc2C1=O [Ligand 12b]
OUTPUT: < 6.52
